System under test: Cholinesterase (Equus caballus)
Sequence (P81908 whole entry): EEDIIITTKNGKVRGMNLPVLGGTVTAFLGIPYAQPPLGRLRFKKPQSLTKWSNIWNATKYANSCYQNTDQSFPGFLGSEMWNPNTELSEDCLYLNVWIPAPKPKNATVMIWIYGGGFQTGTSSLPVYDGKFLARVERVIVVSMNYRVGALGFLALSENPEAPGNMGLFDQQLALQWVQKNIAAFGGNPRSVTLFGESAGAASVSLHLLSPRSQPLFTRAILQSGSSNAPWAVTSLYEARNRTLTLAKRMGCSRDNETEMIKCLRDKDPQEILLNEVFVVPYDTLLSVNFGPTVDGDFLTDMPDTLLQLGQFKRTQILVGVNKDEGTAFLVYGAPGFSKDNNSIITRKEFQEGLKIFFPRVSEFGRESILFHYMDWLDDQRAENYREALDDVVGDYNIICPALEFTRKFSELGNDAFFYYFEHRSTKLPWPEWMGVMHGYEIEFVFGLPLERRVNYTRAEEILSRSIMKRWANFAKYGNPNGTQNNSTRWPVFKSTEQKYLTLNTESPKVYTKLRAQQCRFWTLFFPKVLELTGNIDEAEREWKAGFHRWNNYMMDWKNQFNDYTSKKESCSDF
Experiment notes: Inhibition of equine BChE using BTCh as substrate incubated for 15 mins by Ellmans method
pIC50: −log10 of the molar value.

{"Structure string": "COc1cc2cc(-c3ccc(CN(C)Cc4ccccc4)cc3)c(=O)oc2cc1OC", "pIC50": 4.31}

###

System under test: Cholinesterase (Equus caballus)
Experiment notes: Inhibition of equine BuChE
Let's look at some compounds and their measured IC50.

{"Structure string": "O=c1oc2c(O)cccc2cc1-c1ccccc1", "IC50": "13.1 µM"}
{"Structure string": "COc1cccc2cc(-c3ccc(NC(=O)c4ccc(F)cc4)cc3)c(=O)oc12", "IC50": "0.55 µM"}

###

Let's look at some compounds and their measured IC50.
System under test: Cholinesterase (Homo sapiens)
Sequence (P06276 whole entry): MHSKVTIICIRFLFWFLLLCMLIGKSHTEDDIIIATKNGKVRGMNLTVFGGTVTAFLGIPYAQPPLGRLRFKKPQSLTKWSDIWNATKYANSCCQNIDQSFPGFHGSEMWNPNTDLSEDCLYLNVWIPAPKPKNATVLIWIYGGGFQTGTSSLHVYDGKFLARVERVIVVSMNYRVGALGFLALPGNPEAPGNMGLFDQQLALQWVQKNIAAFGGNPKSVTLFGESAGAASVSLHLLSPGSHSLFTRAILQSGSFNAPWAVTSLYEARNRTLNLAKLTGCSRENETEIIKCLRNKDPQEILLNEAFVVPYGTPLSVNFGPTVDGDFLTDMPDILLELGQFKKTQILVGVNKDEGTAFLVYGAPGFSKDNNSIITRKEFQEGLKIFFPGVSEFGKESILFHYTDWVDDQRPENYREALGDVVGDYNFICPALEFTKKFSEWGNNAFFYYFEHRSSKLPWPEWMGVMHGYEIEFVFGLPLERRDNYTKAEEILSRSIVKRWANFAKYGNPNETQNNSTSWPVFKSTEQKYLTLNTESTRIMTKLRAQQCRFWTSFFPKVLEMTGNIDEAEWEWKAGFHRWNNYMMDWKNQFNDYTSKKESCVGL
Experiment notes: Inhibition of BChE (unknown origin) by Ellman's method
Experimental readout: IC50 (µM)

{"Compound": "COc1cc2oc(=O)ccc2cc1O [ISOSCOPOLETIN]", "Experimental readout": "IC50", "Unit of measurement": "µM", "Recorded value": 110}
{"Compound": "O=C(O)c1cc2ccc(=O)oc2cc1O", "Experimental readout": "IC50", "Unit of measurement": "µM", "Recorded value": 27.2}
{"Compound": "COc1cc2ccc(=O)oc2cc1O [SCOPOLETIN]", "Experimental readout": "IC50", "Unit of measurement": "µM", "Recorded value": 159}
{"Compound": "O=c1ccc2cc(O)c(O)cc2o1 [ESCULETIN]", "Experimental readout": "IC50", "Unit of measurement": "µM", "Recorded value": 8.66}
{"Compound": "COc1ccc2ccc(=O)oc2c1 [HERNIARIN]", "Experimental readout": "IC50", "Unit of measurement": "µM", "Recorded value": 119}
{"Compound": "COc1cc(Cn2cc(COc3ccc4ccc(=O)oc4c3C(C)=O)nn2)cc(OC)c1", "Experimental readout": "IC50", "Unit of measurement": "µM", "Recorded value": 3.26}
{"Compound": "COc1cc(OC)c2c(=O)c(OCCCCn3cc(CN4C(=O)C(=O)c5ccccc54)nn3)c(-c3ccc(OC)c(OC)c3)oc2c1", "Experimental readout": "IC50", "Unit of measurement": "µM", "Recorded value": 11.2}
{"Compound": "O=c1ccc2ccc(O)cc2o1 [UMBELLIFERONE]", "Experimental readout": "IC50", "Unit of measurement": "µM", "Recorded value": 105}

###

Let's look at some compounds and their measured pIC50.
System under test: Acetylcholinesterase (Homo sapiens)
Experiment notes: Inhibition of AChE (unknown origin) by Ellman's method
pIC50: −log10 of the molar value.
Experimental readout: pIC50

{"Compound": "COc1cc(Cn2cc(COc3ccc4ccc(=O)oc4c3C(C)=O)nn2)cc(OC)c1", "Recorded value": 5.59}
{"Compound": "Cc1cc(=O)oc2cc(OCC(=O)N/N=C\\c3ccc(C(=O)O)cc3)ccc12", "Recorded value": 6.10}
{"Compound": "O=c1ccc2cc(O)c(O)cc2o1 [ESCULETIN]", "Recorded value": 5.21}
{"Compound": "O=C(O)c1cc2ccc(=O)oc2cc1O", "Recorded value": 3.84}
{"Compound": "COc1ccc2ccc(=O)oc2c1 [HERNIARIN]", "Recorded value": 3.98}
{"Compound": "COc1cc2ccc(=O)oc2cc1O [SCOPOLETIN]", "Recorded value": 3.81}
{"Compound": "COc1cc2oc(=O)ccc2cc1O [ISOSCOPOLETIN]", "Recorded value": 3.76}

###

System under test: Acetylcholinesterase (Electrophorus electricus, UniProt O42275)
Sequence (O42275 whole entry): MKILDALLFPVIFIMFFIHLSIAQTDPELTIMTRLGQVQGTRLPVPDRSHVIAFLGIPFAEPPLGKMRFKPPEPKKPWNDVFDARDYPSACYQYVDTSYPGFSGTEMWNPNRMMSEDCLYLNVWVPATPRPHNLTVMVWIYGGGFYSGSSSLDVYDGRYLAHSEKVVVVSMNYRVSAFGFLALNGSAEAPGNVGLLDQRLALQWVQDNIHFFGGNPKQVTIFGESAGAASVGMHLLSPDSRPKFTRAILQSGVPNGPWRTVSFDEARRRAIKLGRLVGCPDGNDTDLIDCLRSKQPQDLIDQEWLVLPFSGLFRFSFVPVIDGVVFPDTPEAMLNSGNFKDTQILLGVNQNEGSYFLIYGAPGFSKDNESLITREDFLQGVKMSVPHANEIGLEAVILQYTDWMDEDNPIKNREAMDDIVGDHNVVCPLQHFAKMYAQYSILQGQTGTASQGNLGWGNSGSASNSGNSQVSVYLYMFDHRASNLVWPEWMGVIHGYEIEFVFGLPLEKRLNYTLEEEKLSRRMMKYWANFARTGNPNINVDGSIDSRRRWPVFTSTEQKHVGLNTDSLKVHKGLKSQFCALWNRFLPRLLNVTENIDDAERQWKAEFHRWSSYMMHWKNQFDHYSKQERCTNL
Experimental readout: IC50 (µM)

{"Structure string": "COc1cccc2cc(C(=O)NCc3cnnn3Cc3ccccc3Cl)c(=O)oc12", "Experimental readout": "IC50", "Unit of measurement": "µM", "Recorded value": 15.4}

###

System under test: UniProtKB P06276
Experiment notes: Inhibition of BuChE (unknown origin)
pIC50: −log10 of the molar value.
Experimental readout: pIC50

{"Structure string": "O=C1CCOc2ccc(OCCN3CCCCCC3)cc21", "Experimental readout": "pIC50", "Recorded value": 4.86}

###

System under test: Beta-secretase 1 (Homo sapiens, UniProt P56817)
Sequence (P56817 whole entry): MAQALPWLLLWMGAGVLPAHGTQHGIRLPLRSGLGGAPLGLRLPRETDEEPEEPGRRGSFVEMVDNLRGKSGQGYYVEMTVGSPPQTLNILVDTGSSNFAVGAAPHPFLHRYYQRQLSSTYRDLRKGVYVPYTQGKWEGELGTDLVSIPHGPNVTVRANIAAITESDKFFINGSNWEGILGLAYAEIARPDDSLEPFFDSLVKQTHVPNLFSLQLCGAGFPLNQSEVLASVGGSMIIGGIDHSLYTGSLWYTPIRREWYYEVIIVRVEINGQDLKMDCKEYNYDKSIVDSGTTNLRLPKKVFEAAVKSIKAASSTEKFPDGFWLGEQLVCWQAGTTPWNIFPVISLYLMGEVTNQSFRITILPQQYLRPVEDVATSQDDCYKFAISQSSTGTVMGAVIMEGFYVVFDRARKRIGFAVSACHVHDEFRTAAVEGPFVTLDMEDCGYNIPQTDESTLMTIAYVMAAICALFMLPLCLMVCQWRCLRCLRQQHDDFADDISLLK
Experiment notes: Inhibition of BACE1 (unknown origin) using Rh-EVNLDAEFK-Quencher as substrate incubated for 1 hr by FRET assay
pIC50: −log10 of the molar value.
Binary classification by pIC50, with 4 as an inclusive lower bound for true; all other cases are false.

{"Structure string": "COc1cc2ccc(=O)oc2cc1O", "Category label": "false"}
{"Structure string": "COc1ccc2ccc(=O)oc2c1", "Category label": "false"}
{"Structure string": "COc1cc2oc(=O)ccc2cc1O", "Category label": "false"}
{"Structure string": "O=c1ccc2ccc(O)cc2o1", "Category label": "false"}
{"Structure string": "O=C(O)c1cc2ccc(=O)oc2cc1O", "Category label": "true"}

###

System under test: Acetylcholinesterase (Homo sapiens, UniProt P22303)
Sequence (P22303 whole entry): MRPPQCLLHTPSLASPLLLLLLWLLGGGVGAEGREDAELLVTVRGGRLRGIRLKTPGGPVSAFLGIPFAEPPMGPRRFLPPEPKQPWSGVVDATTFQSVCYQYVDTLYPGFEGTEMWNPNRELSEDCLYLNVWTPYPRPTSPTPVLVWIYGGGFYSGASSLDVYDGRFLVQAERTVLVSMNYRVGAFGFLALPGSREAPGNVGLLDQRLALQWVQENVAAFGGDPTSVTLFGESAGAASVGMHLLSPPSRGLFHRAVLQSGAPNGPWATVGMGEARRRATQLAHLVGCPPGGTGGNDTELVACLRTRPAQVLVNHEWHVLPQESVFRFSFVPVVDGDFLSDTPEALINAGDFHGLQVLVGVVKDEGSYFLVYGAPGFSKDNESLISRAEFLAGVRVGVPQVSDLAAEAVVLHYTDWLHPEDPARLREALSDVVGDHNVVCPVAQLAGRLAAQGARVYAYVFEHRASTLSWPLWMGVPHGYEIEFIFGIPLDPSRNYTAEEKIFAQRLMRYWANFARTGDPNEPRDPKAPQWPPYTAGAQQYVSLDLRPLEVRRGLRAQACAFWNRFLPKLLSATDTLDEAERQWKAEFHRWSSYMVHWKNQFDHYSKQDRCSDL
Experiment notes: Inhibition of AChE (unknown origin)
Experimental readout: IC50 (µM)

{"Compound": "O=C1OC2=C(O)C(O)=CCC2C=C1c1ccc(O)c(O)c1 (centres undefined)", "System under test": "Acetylcholinesterase (Homo sapiens, UniProt P22303)", "Unit of measurement": "µM", "Recorded value": 3.04}
{"Compound": "O=C1CCOc2ccc(OCCN3CCCCCC3)cc21", "System under test": "Acetylcholinesterase (Homo sapiens, UniProt P22303)", "Unit of measurement": "µM", "Recorded value": 4.88}
{"Compound": "O=c1oc2ccccc2cc1-c1ccc(Br)cc1", "System under test": "Acetylcholinesterase (Homo sapiens, UniProt P22303)", "Unit of measurement": "µM", "Recorded value": 19.2}
{"Compound": "COc1cccc2cc(-c3ccc(NC(=O)c4ccc(CCl)cc4)cc3)c(=O)oc12", "System under test": "Acetylcholinesterase (Homo sapiens, UniProt P22303)", "Unit of measurement": "µM", "Recorded value": 0.091}

###

System under test: Beta-secretase 1 (Homo sapiens, UniProt P56817)
Experiment notes: Inhibition of BACE1 (unknown origin) by FRET assay

{"Structure string": "COc1cccc2cc(C(=O)NCc3cnnn3Cc3ccccc3Cl)c(=O)oc12", "IC50": "96.1 µM"}

###

System under test: Acetylcholinesterase (Homo sapiens, UniProt P22303)
Experiment notes: Inhibition of human recombinant AChE using acetylthiocholine iodide as substrate preincubated for 15 mins followed by substrate addition measured for 10 mins DTNB reagent based Ellman's method
pIC50: −log10 of the molar value.

{"Structure string": "CC(C)c1cc2cc3ccc(=O)oc3cc2o1", "pIC50": 4.06}
